System: TRIM66 (PB)
experiment: Histone peptide microarray
Assay type: binding, human
test-context: TRIM66 (PB), GST-tagged; arrays performed twice, n of 4
Where no end group is shown, it is not given here. [ ]: non-standard residue; d: D form. Arg(Me2a) = CN(C)C(=N)NCCC[C@H](N)C(=O)O; pS = N[C@@H](COP(=O)(O)O)C(=O)O
Give measured Array Heatmap value (peptide array binding signal) for each item. Keep answers brief.
Give bare numbers.

Please go through the list and note Array Heatmap value (peptide array binding signal) for each substance.
1. H2A.Z (1-19) (N-ac): H2AZ 1-19 (Ac-AGGKAGKDSGKAKTKAVSR; UniProt P0C0S5 2-20, looked up, fragment)
2. H2AS1p + R3me2a + K5ac: H2A 1-17 ([pS]G[Arg(Me2a)]GK(Ac)QGGKARAKAKTR; UniProt P0C0S8 2-18, looked up, fragment)

1. 0.556
2. 0.6131

====

Tested on: ING1
experiment: Histone peptide microarray
Type: binding, human
test-context: ING1, GST-tagged; arrays performed twice, n of 4
Where no end group is shown, it is not given here.
For each record, write down the corresponding Array Heatmap value (peptide array binding signal).
Numbers only.

Quick one: give me Array Heatmap value (peptide array binding signal) for each item below, same order please.
1. H2A.Z (1-19) (N-ac): H2AZ 1-19 (Ac-AGGKAGKDSGKAKTKAVSR; UniProt P0C0S5 2-20, looked up, fragment)
2. H2A.Z (1-19): H2AZ 1-19 (AGGKAGKDSGKAKTKAVSR; UniProt P0C0S5 2-20, looked up, fragment)
3. H4K12ac + KQ5,8,16,20: H4 1-23 (SGRGQGGQGLGK(Ac)GGAQRHRQVLR; UniProt P62805 2-24, looked up, variant K5Q K8Q K16Q K20Q)

0.4946
0.6166
0.553

====

Consider the following substances; for each one, report its Array Heatmap value (peptide array binding signal).
Test system: PHF23
experiment: Histone peptide microarray
Assay type: binding, human
test-context: PHF23, GST-tagged; arrays performed twice, n of 4
Where no end group is shown, it is not given here. [ ]: non-standard residue; d: D form. Arg(Me2a) = CN(C)C(=N)NCCC[C@H](N)C(=O)O; pS = N[C@@H](COP(=O)(O)O)C(=O)O
Answers are plain numbers.

* H2AS1p + K5ac: H2A 1-17 ([pS]GRGK(Ac)QGGKARAKAKTR; UniProt P0C0S8 2-18, looked up, fragment) | 0.4819
* H2AX (132-142): H2AX 132-142 (GKKATQASQEY; UniProt P16104 133-143, looked up, fragment) | 0.5369
* Myc-Tag: 1-10 (ILKKATAYIL; Myc epitope tag; UniProt P01106 410-419, looked up, fragment) | 0.5279
* H2AR3me2a + K5ac: H2A 1-17 (SG[Arg(Me2a)]GK(Ac)QGGKARAKAKTR; UniProt P0C0S8 2-18, looked up, fragment) | 0.5294
* H2AX (S139p): H2AX 132-142 (GKKATQA[pS]QEY; UniProt P16104 133-143, looked up, fragment) | 0.5395

Give Array Heatmap value (peptide array binding signal) for each of the items listed below.
1. H4K12ac + KQ5,8,16,20: H4 1-23 (SGRGQGGQGLGK(Ac)GGAQRHRQVLR; UniProt P62805 2-24, looked up, variant K5Q K8Q K16Q K20Q)
2. H2A.Z (1-19): H2AZ 1-19 (AGGKAGKDSGKAKTKAVSR; UniProt P0C0S5 2-20, looked up, fragment)

1. 0.5714
2. 0.5743
